Please go through the items and note down their pIC50.
MEASUREMENT TARGET: APOL1 (Homo sapiens)
Sequence (O14791 whole entry S342G/I384M, form open): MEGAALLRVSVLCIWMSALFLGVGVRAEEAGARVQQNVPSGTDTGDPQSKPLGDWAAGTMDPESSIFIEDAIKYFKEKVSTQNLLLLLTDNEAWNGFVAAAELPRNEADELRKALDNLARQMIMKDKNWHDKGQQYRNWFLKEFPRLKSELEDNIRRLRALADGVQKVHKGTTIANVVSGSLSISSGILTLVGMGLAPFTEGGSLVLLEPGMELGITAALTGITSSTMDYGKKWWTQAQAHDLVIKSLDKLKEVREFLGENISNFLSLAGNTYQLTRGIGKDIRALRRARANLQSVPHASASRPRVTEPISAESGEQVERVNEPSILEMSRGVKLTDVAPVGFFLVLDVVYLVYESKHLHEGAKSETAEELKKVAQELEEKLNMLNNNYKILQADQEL
EXPERIMENT DESCRIPTION: MultiTox-Fluor Multiplex Cytotoxicity Assay in tet-inducible APOL1 T-REx-HEK293 cells (cell rescue, ratio of dead to live cells)
CONDITION CONTEXT: tet-inducible transgenic APOL1 T-REx-HEK293 cell lines, 50 ng/mL tet, 24 hours; read-out: IP50 (i.e., IC50 for cell proliferation)
pIC50: −log10 of the molar value.

Worked cases, answers included:
>  <MOLECULE>
C[C@H]1C[C@@]2(CCN1Cc1cnn(C[C@H](O)C(C)(C)O)c1)OCCc1c2sc(C(F)(F)F)c1CO

>  <MEASUREMENT TARGET>
APOL1 (Homo sapiens)

>  <ENDPOINT VALUE>
> 7.00

$$$$
>  <MOLECULE>
CCc1cc2c(s1)CCO[C@@]21CCN(Cc2cn(C(C)COC)nn2)[C@@H](C)C1 (stereo partly drawn)

>  <MEASUREMENT TARGET>
APOL1 (Homo sapiens)

>  <ENDPOINT VALUE>
6.30 to 7.00

$$$$
>  <MOLECULE>
C[C@H]1C[C@@]2(CCN1Cc1cn(CC(O)C(C)(C)O)nn1)OCCc1cc(CC(F)F)sc12 (stereo partly drawn)

>  <MEASUREMENT TARGET>
APOL1 (Homo sapiens)

>  <ENDPOINT VALUE>
> 7.00

$$$$
>  <MOLECULE>
CCc1cc2c(s1)CCO[C@@]21CCN(Cc2cn(-c3cncc(O)c3)nn2)[C@@H](C)C1

>  <MEASUREMENT TARGET>
APOL1 (Homo sapiens)

>  <ENDPOINT VALUE>
6.30 to 7.00

$$$$

Here are 8 molecules. What values of pIC50 were reported for them?
1. C[C@H]1C[C@@]2(CCN1Cc1cncn1C)OCCc1cc(CC(F)F)sc12
2. CCc1cc2c(s1)CCO[C@@]21CCN(Cc2cnc(N[C@@H]3C=C[C@H](CO)C3)nc2)[C@@H](C)C1
3. C[C@H]1C[C@@]2(CCN1Cc1cnn(CC(O)c3ccc(F)cn3)c1)OCCc1c2sc(C(F)(F)F)c1CO (stereo partly drawn)
4. C[C@H]1C[C@@]2(CCN1Cc1cnn(CC(O)CC3(C#N)CC3)c1)OCCc1c2sc(C(F)(F)F)c1CO (stereo partly drawn)
5. CCc1cc2c(s1)CCOC21CCN(Cc2cn(CC3CCOCC3)nn2)CC1
6. Cn1cc(CN2CCC3(CC2)OCC2(CC2)c2sc(Cl)cc23)cn1
7. Cc1cc2c(s1)[C@]1(CCN(Cc3cnc(NC(C)(C)CO)nc3)[C@@H](C)C1)OCC2
8. CCc1cc2c(s1)CCO[C@@]21CCN(Cc2cn(CCSC(F)(F)F)nn2)[C@@H](C)C1

[out]
["6.30 to 7.00", "> 7.00", "> 7.00", "> 7.00", "6.00 to 6.30", "> 7.00", "> 7.00", "> 7.00"]
